Source listed as PubChem BioAssay (NCATS).

- Protocol Description: qHTS for Inhibitors of the Functional Ribonucleoprotein Complex (vRNP) of Lymphocytic Choriomeningitis Arenaviruses (LCMV): Viability assay - alamar blue signal for LCMV Primary Screen (AID 1347085); further: nearly all actives have a fitted effect of over 80% in size
- Study Conditions: alamar blue viability counter-screen, LCMV vRNP screen cells; series mostly up to 57.5 µM
Results filed as inconclusive are left out. Active and inactive are the calls of the source. The call rests on the fitted dose curve; tested in HEK293 reporter line.
Response enum: Y = active, N = inactive

Incoming: Returns: the outcome recorded for CC12CCC(=O)C=C1CCC1C2CCC2(C)C(C(=O)CO)CC(O)C12 (stereo not given) in this assay.
Outgoing: N

Incoming: Returns: the outcome recorded for CC1(C)Cc2c(sc(NC(=S)NC(=O)c3ccccc3)c2C(=O)O)CO1 in this assay.
Outgoing: Y

Incoming: Returns: the outcome recorded for COc1ccc(C(=O)CC2(O)C(=O)Nc3c(Cl)ccc(Cl)c32)cc1 (stereo not given) in this assay.
Outgoing: Y

Incoming: Returns: the outcome recorded for Cc1cc(=O)oc2cc3c(cc12)OCO3 in this assay.
Outgoing: N

Incoming: Returns: the outcome recorded for C=C1C[C@H](OC(=O)C(C)(O)CCl)C2C(=C)C(=O)O[C@@H]2C2C1C[C@H](O)[C@]2(O)CCl (stereo not given in full) in this assay.
Outgoing: N

###

- System: PAD
- Protocol Description: qHTS profiling for inhibitors of Plasmodium falciparum proliferation (AID 504749); further: nearly all actives have a fitted effect of over 60% in size
- Study Conditions: P. falciparum in erythrocytes, SYBR Green DNA, 72 h; series mostly up to 28.7 µM
- Procedure: NIH National Institute of Allergy and Infectious Diseases [NIAID] NIH Chemical Genomics Center [NCGC] […] Because mature erythrocytes lack DNA, only Plasmodium-derived DNA is detected. NCGC Assay Protocol Summary: The SYBR Green viability assay was adapted from a method described previously (Plouffe et al., 2008). […] The following morning, fluorescence intensity at 485(14) nm excitation and 535(25) nm emission wavelengths was measured on an EnVision (Perkin Elmer) plate reader. […]
Inconclusive results are not listed. Active and inactive are the calls of the source. Calls come from the whole dose curve; as a rule, active = well fitted inhibition curve with a large enough effect; inconclusive = small, poorly fitted or top-dose-only effect; inactive = flat fitted curve, though single readings scatter.
Response enum: active, inactive

Incoming: Returns: the outcome recorded for O=C(O)c1ccccc1-c1c2cc(Br)c(=O)cc-2oc2[c]([Hg])c(O)c(Br)cc12 in this assay.
Outgoing: inactive

Incoming: Returns: the outcome recorded for C[N+](C)(C)CC(=O)[O-] in this assay.
Outgoing: inactive

Incoming: Returns: the outcome recorded for CCN(CC)CCO[C@H]1CC[C@@]2(C)C(=CC[C@@H]3[C@H]2CC[C@]2(C)C(=O)CC[C@H]32)C1 in this assay.
Outgoing: inactive

Incoming: Returns: the outcome recorded for CO[C@H]1[C@@H](O)CC(OC2[C@@H](O)CC(OC3[C@@H](O)C[C@H](OC4CC[C@@]5(C)C(CCC6C5CC(O)[C@]5(C)[C@H](C7=CC(=O)OC7)CCC65O)C4)O[C@@H]3C)O[C@@H]2C)O[C@@H]1C (stereo partly specified) in this assay.
Outgoing: inactive

Incoming: Returns: the outcome recorded for CCN1C[C@]2(COC)[C@H](O)C[C@H](OC)[C@]34C1C([C@H](OC)[C@H]23)[C@]1(OC(C)=O)C2[C@@H](OC(=O)c3ccccc3)C(O)(C[C@H]24)[C@@H](OC)[C@@H]1O in this assay.
Outgoing: inactive

Incoming: Returns: the outcome recorded for Oc1cc[c]([Hg][Cl])cc1 in this assay.
Outgoing: active

###

- Test system: Tov-21-G
- Protocol Description: Primary qHTS to identify gynecologic anti-cancer compounds using libraries of approved drugs and bioactive compounds (AID 1345084); further: nearly all actives have a fitted effect of over 55% in size
- Study Conditions: Gynecologic cancer cell panel viability, ATPlite luminescence, 48 h; series mostly up to 57.5 µM
Records with an inconclusive call do not appear. The source made the active and inactive calls. Calls come from the whole dose curve; as a rule, active = well fitted cell-killing curve with a large enough effect; inconclusive = small, poorly fitted or top-dose-only effect, or effect the other way; inactive = flat fitted curve, though single readings scatter.
Response enum: Yes for active, No for inactive

Incoming: Returns: the outcome recorded for OCc1nnc2n1-c1ccc(Cl)cc1C(c1ccccc1Cl)=NC2 in this assay.
Outgoing: No

Incoming: Returns: the outcome recorded for CCC1C2CC3C4N(C)c5ccccc5C45CC(C2C5O)N3C1O (centres undefined) in this assay.
Outgoing: No

Incoming: Returns: the outcome recorded for C[N@@+]1(CC2CC2)CC[C@]23c4c5ccc(O)c4O[C@H]2C(=O)CC[C@@]3(O)[C@H]1C5 in this assay.
Outgoing: No

Incoming: Returns: the outcome recorded for CC(C)=CCC[C@]1(C)C=Cc2c(O)c3c(c(CC=C(C)C)c2O1)O[C@]12C(=C[C@@H]4CC1C(C)(C)O[C@@]2(C/C=C(/C)C(=O)O)C4=O)C3=O in this assay.
Outgoing: Yes

Incoming: Returns: the outcome recorded for CN=C(NS(=O)(=O)c1ccc(Cl)cc1)N1C[C@H](c2ccccc2)C(c2ccc(Cl)cc2)=N1 in this assay.
Outgoing: No

Incoming: Returns: the outcome recorded for CC1CCCCCC(=O)c2c(O)cc(O)cc2CC(=O)O1 (centres undefined) in this assay.
Outgoing: No

Incoming: Returns: the outcome recorded for CN1CCN(c2nc3ccccc3nc2Cl)CC1 in this assay.
Outgoing: No

Incoming: Returns: the outcome recorded for C=C1C2(C)CC3C(C)(O)C4=CC(=O)OC(C)(C)C4=CCC3(C)C13C(=O)OC(C)C3(O)C2=O (centres undefined) in this assay.
Outgoing: No

Incoming: Returns: the outcome recorded for CC1CCCC(=O)CCC/C=C/c2cc(O)cc(O)c2C(=O)O1 (centres undefined) in this assay.
Outgoing: No

Incoming: Returns: the outcome recorded for CC12CCC3C(C1)c1c(cc(O)c(C(=O)c4ccccc4)c1OC3(C)C)O2 (centres undefined) in this assay.
Outgoing: No

Incoming: Returns: the outcome recorded for CCC1=CC2CN3CCc4c([nH]c5ccccc45)[C@@](C(=O)OC)(C2)[C@@H]13 in this assay.
Outgoing: No

Incoming: Returns: the outcome recorded for C/C=C1/CN2CC[C@]34C(=Nc5ccccc53)[C@@H]2C[C@@H]1[C@H]4C(=O)OC in this assay.
Outgoing: No

Incoming: Returns: the outcome recorded for CN1C(=O)CN=C(c2ccccc2Cl)c2cc(Cl)ccc21 in this assay.
Outgoing: No

Incoming: Returns: the outcome recorded for Cc1c(Cl)c(OCC(=O)N2CCN(C)CC2)nc2sc(C(=O)NC3CC3)c(N)c12 in this assay.
Outgoing: No

Incoming: Returns: the outcome recorded for CN1C(=O)[C@]23CC4C(C)(C)[C@@]5(C[C@@]41CN2CC[C@@]3(C)O)C(=O)Nc1c5ccc2c1OC=CC(C)(C)O2 (some centres undefined) in this assay.
Outgoing: No

Incoming: Returns: the outcome recorded for CC(=O)OC[C@]12C[C@H](OC(=O)CC(C)C)C(C)=C[C@H]1O[C@@H]1[C@H](O)[C@@H](OC(C)=O)[C@@]2(C)[C@@]12CO2 in this assay.
Outgoing: Yes

Incoming: Returns: the outcome recorded for O=C(OC[C@H]1O[C@@H](Oc2ccc(O)cc2CO)[C@H](O)[C@@H](O)[C@@H]1O)c1ccccc1 in this assay.
Outgoing: No

Incoming: Returns: the outcome recorded for CC(=O)O[C@@H]1[C@H]2CC[C@H]3[C@@](C)(O)[C@@H]4C[C@H](O)C(C)(C)[C@@]4(O)[C@H](O)C[C@@]13C[C@@]2(C)O in this assay.
Outgoing: No

Incoming: Returns: the outcome recorded for N#Cc1ccccc1-c1cc(-c2ccccn2)cn(-c2ccccc2)c1=O in this assay.
Outgoing: No

###

- System: CASKI
- Protocol Description: Primary qHTS to identify gynecologic anti-cancer compounds using libraries of approved drugs and bioactive compounds (AID 1345084); further: nearly all actives have a fitted effect of over 55% in size; on activity change, negative = cytotoxicity: on the % scale 0 is the no-effect control and ±100 the full control effect
- Study Conditions: Gynecologic cancer cell panel viability, ATPlite luminescence, 48 h; series mostly up to 57.5 µM
Inconclusive results are not listed. Active and inactive are the calls of the source. The call rests on the fitted dose curve; in most records, active means well fitted cell-killing curve with a large enough effect; inconclusive means small, poorly fitted or top-dose-only effect, or effect the other way; inactive means flat fitted curve, though single readings scatter. Where a SMILES comes first, the peptide text is derived from it. [ ]: non-standard residue; d: D form. Ala(indol-2-yl) = N[C@@H](Cc1cc2ccccc2[nH]1)C(=O)O; Aib = CC(C)(N)C(=O)O
Observation Type: activity change, negative = cytotoxicity

Incoming: Request the reported activity change, negative = cytotoxicity associated with CN(CC[C@H](N)CC(=O)N[C@H]1C=C[C@@H](n2ccc(N)nc2=O)O[C@@H]1C(=O)O)C(=N)N
Outgoing: 4.22% [at 11.6 µM] (inactive)

Incoming: Request the reported activity change, negative = cytotoxicity associated with CC[C@@H]1/C=C/C=C/C[C@H](C)C(O)[C@](C)(O)C(=O)[C@H](C)C(O)[C@H](C)C(=O)[C@H](C)[C@@H](O)[C@H](C)/C=C/C(=O)O[C@H]2[C@@H](C)[C@@H](CC1)O[C@]1(O[C@H](C[C@H](C)O)[C@H](C)CC1=O)[C@@H]2C (stereo partly drawn)
Outgoing: -1.41% [at 11.6 µM] (inactive)

Incoming: Request the reported activity change, negative = cytotoxicity associated with C/C=C(\C)C(=O)OC1CC2C(CC=C3CC(OC4CC(OC)C(OC5CC(OC)C(OC6CC(OC)C(OC7CC(OC)C(O)C(C)O7)C(C)O6)C(C)O5)C(C)O4)CCC32C)C2(O)CCC(C(C)=O)C12C (stereo not drawn)
Outgoing: -11.1% [at 11.6 µM] (inactive)

Incoming: Request the reported activity change, negative = cytotoxicity associated with CO[C@H]1C[C@H](O[C@H]2CC[C@@]3(C)C(=CCC4C3CC[C@]3(C)[C@@H](C5=CC(=O)OC5)CC[C@]43O)C2)O[C@@H](C)[C@@H]1O[C@@H]1O[C@H](CO[C@@H]2O[C@H](CO)[C@@H](O)[C@H](O)[C@H]2O)[C@@H](O)[C@H](O)[C@H]1O (stereo partly drawn)
Outgoing: 22.6% [at 11.6 µM] (inactive)

Incoming: Request the reported activity change, negative = cytotoxicity associated with C[C@H]1CC[C@@H]2[C@@H](C)[C@H]3[C@H](C[C@H]4[C@@H]5CC=C6CC(O[C@@H]7O[C@H](CO)[C@@H](O)[C@H](O[C@@H]8O[C@H](CO)[C@@H](O)[C@H](O)[C@H]8O)[C@@H]7O[C@@H]7O[C@@H](C)[C@H](O)[C@@H](O)[C@H]7O)CC[C@]6(C)[C@H]5CC[C@]34C)N2C1 (stereo partly drawn)
Outgoing: 0.984% [at 11.6 µM] (inactive)

Incoming: Request the reported activity change, negative = cytotoxicity associated with C/C=C(\C)C(=O)OC1C2C3(C)CCC(OC4CC(OC)C(OC5OC(C)C(O)C(OC)C5O)C(C)O4)CC3CCC23OC32CCC(C(C)=O)C2(C)C1OC(=O)/C(C)=C/C (stereo not drawn)
Outgoing: -3.16% [at 11.6 µM] (inactive)

Incoming: Request the reported activity change, negative = cytotoxicity associated with CC(C)(NC(=O)[C@@H](N)Cc1ccc(O)cc1)C(=O)N[C@@H](Cc1cc2ccccc2[nH]1)C(=O)N[C@@H](Cc1ccccc1)C(=O)O (H-Y[Aib][Ala(indol-2-yl)]F-OH)
Outgoing: 4.29% [at 11.6 µM] (inactive)

Incoming: Request the reported activity change, negative = cytotoxicity associated with COc1ccc(CC2C(=O)NC(C)C(=O)N(C)C3Cc4ccc(cc4)Oc4cc(ccc4OC4OC(CO)C(O)C(O)C4O)CC(C(=O)NC(C)C(=O)NC(CCC(=O)O)C(=O)N2C)N(C)C3=O)cc1 (stereo not drawn)
Outgoing: -30.7% [at 11.6 µM] (inactive)
